Consider the following compounds; for each one, report its IC50.
# Study target: p110γ (Homo sapiens (Human), UniProt P48736)
# Sequence (P48736 whole entry): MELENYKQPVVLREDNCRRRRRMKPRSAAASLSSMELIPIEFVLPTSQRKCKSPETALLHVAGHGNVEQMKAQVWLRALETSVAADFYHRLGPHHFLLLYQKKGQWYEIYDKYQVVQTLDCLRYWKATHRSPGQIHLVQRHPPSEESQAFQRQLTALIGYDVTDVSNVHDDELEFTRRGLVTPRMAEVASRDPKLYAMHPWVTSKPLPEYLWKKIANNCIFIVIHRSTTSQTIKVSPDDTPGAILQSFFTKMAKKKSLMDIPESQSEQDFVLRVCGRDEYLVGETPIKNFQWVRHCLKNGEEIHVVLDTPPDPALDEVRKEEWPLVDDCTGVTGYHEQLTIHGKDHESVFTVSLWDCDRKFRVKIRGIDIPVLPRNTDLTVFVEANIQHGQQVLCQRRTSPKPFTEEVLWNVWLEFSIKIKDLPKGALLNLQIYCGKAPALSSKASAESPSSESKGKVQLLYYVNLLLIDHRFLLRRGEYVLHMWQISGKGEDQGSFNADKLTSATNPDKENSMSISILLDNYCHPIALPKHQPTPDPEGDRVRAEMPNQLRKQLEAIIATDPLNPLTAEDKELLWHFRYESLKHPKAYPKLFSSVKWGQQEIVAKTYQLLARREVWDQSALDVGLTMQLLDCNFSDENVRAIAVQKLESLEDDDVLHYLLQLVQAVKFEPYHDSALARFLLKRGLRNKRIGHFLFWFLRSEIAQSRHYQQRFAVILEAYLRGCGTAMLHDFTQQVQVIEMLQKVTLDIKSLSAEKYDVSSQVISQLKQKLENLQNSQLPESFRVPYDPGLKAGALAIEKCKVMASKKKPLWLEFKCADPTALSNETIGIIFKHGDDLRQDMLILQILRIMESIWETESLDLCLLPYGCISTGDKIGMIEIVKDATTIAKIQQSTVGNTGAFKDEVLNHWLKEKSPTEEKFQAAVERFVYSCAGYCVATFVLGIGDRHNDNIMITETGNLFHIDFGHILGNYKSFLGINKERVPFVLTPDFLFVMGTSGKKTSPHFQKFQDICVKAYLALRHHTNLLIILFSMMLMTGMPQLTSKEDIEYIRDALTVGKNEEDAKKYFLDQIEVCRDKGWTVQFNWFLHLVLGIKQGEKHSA
# Assay procedure: PI 3-Kinase (human) HTRF assay, p110γ
# Format: biochemical
# Run conditions: read-out: PI3K γ IC50

Sample answers from the record:
1) Nc1nc2cc(-c3ccc4nccc(NCCN5CCOCC5)c4c3)ccc2o1 :: < 1000 nM
2) CS(=O)(=O)N1CCN(C(=O)c2cnc3ccc(-c4ccc5oc(N)nc5c4)cn23)CC1 :: < 1000 nM
3) Nc1nc2cc(-c3ccc4ncn(CCO)c(=O)c4c3)ccc2o1 :: < 1000 nM
4) Nc1ncnc2ccc(-c3ccc4nccc(-c5ccncc5)c4c3)cc12 :: < 1000 nM
5) Nc1nc2cc(-c3ccc4ncc(C#CC5CC5)n4c3)ccc2o1 :: < 100 nM

Please state, for each entry, its recorded IC50.
1. Nc1nc2cc(-c3ccc4ncc(N5CCC(O)CC5)nc4c3)ccc2o1
2. Nc1nc2cc(-c3ccc4ncc(C(=O)N5CCCCC5)n4c3)ccc2o1
3. CN(C)CC(=O)N1CCC(Nc2ncnc3ccc(-c4ccc5oc(N)nc5c4)cc23)CC1
4. Nc1nc2cc(-c3ccc4ncc(N5CCNC(=O)C5)nc4c3)ccc2o1

["< 1000 nM", "< 10000 nM", "< 1000 nM", "< 1000 nM"]
